Each item that follows carries a reported Kd.
Target: FimH-CRD (Escherichia coli)
Construct: The first 177 amino acids of the FimH protein are expressed as a fusion protein; thrombin tag (printed as 'fusion protein with thrombin') (cleaved yes); made in house; host or cells: bacteria (pET21b plasmid)
Sequence (P08191 22-177): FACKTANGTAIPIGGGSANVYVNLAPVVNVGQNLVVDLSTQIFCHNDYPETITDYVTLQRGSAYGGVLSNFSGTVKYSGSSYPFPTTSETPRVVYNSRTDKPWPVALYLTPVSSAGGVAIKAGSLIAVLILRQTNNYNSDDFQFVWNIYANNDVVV
Test: Competitive binding assay by fluorescence polarization, assay 2 (compounds prepared by a robotics system, plates frozen and thawed)
Parameters: species or system E. coli
Conditions: Assay 2 Kd, 5 nM Alexa 647 mannoside probe, 60 nM FimH-CRD, replicate values in one cell

[
  {
    "compound": "OC[C@H]1O[C@H](C#Cc2ccc(C#C[C@H]3O[C@H](CO)[C@@H](O)[C@H](O)[C@@H]3O)cc2)[C@@H](O)[C@@H](O)[C@@H]1O",
    "Kd": "< 5 nM"
  },
  {
    "compound": "OC[C@H]1O[C@H](C#Cc2cccc3c(C#C[C@H]4O[C@H](CO)[C@@H](O)[C@H](O)[C@@H]4O)cccc23)[C@@H](O)[C@@H](O)[C@@H]1O",
    "Kd": "< 5 nM"
  },
  {
    "compound": "OC[C@H]1O[C@H](c2ccc3cc(C#C[C@H]4O[C@H](CO)[C@@H](O)[C@H](O)[C@@H]4O)ccc3c2)[C@@H](O)[C@@H](O)[C@@H]1O",
    "Kd": "< 5 nM"
  },
  {
    "compound": "OC[C@H]1O[C@H](c2cccc(CCCCc3cccc([C@H]4O[C@H](CO)[C@@H](O)[C@H](O)[C@@H]4O)c3)c2)[C@@H](O)[C@@H](O)[C@@H]1O",
    "Kd": "< 5 nM"
  },
  {
    "compound": "O=C(NCCCNC(=O)c1cccc([C@H]2O[C@H](CO)[C@@H](O)[C@H](O)[C@@H]2O)c1)c1cccc([C@H]2O[C@H](CO)[C@@H](O)[C@H](O)[C@@H]2O)c1",
    "Kd": "24 nM"
  }
]

Source of measurements: patent US11634447B2
